Exercise: for every item that follows, state its recorded pIC50.
# System: Raji cells, CD33-non-expressing
# experimentSummary: In vitro cell assay, cell viability by MTS, Raji
# Format: cell-based
# assaySetup: Homo sapiens, 96 h, read-out: Average IC50, Raji
pIC50 field: float, defined as -log10 of concentration (mol/L).

## Input Value lookup for pIC50; key = CCN[C@H]1CO[C@@H](O[C@@H]2C(O)[C@H](NO[C@H]3C[C@H](O)[C@H](SC(=O)c4c(C)c(I)c(O[C@@H]5O[C@@H](C)[C@H](O)[C@@H](OC)[C@H]5O)c(OC)c4OC)[C@@H](C)O3)[C@@H](C)O[C@H]2O[C@H]2C#C/C=C\C#C[C@]3(O)CC(=O)C(NC(=O)OC)=C2/C3=C\CSSc2ncccc2C(=O)O)C[C@@H]1OC (stereo in doubt)
## Output 10.41

## Input Value lookup for pIC50; key = CCN[C@H]1CO[C@@H](O[C@H]2[C@H](O[C@H]3C#C/C=C\C#C[C@]4(O)CC(=O)C(NC(=O)OC)=C3/C4=C\CSSC(C)(C)C(=O)O)O[C@H](C)[C@@H](NO[C@H]3C[C@H](O)[C@H](SC(=O)c4c(C)c(I)c(O[C@@H]5O[C@@H](C)[C@H](O)[C@@H](OC)[C@H]5O)c(OC)c4OC)[C@@H](C)O3)[C@@H]2O)C[C@@H]1OC
## Output 10.48

## Input Value lookup for pIC50; key = CCN[C@H]1CO[C@@H](O[C@H]2[C@H](O[C@H]3C#C/C=C\C#C[C@]4(O)CC(=O)C(NC(=O)OC)=C3/C4=C\CSSC(C)(C)CC(=O)N(C)C)O[C@H](C)[C@@H](NO[C@H]3C[C@H](O)[C@H](SC(=O)c4c(C)c(I)c(O[C@@H]5O[C@@H](C)[C@H](O)[C@@H](OC)[C@H]5O)c(OC)c4OC)[C@@H](C)O3)[C@@H]2O)C[C@@H]1OC
## Output 11.10
